Attribution: ChEMBL document CHEMBL1126712

- TARGET: Leukotriene B4 receptor 1 (Homo sapiens, UniProt Q15722)
- Sequence (Q15722 whole entry): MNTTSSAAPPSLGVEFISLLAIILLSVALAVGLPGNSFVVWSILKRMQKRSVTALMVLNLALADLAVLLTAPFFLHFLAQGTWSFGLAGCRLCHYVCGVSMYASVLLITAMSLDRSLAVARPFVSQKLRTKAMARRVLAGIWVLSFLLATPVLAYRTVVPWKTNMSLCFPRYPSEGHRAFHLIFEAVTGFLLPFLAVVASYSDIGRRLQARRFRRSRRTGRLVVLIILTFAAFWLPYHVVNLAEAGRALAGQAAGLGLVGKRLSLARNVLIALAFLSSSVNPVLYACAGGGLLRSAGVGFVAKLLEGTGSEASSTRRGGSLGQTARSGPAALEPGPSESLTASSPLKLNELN
- EXPERIMENT DESCRIPTION: Inhibition of binding of [3H]LTB4 to receptor […]
pIC50: −log10 of the molar value.
MEASURED QUANTITY: pIC50

[[record]]
input_smiles = "COc1ccc(/C=C/CCCCOc2ccc(C(=O)c3cccc(C(=O)O)c3)cc2CCC(=O)O)cc1"
measured_quantity = "pIC50"
recorded_measurement = 8.72


====

- TARGET: Leukotriene B4 receptor 1 (Homo sapiens, UniProt Q15722)
- EXPERIMENT DESCRIPTION: Relative potency against LTB4 receptor was determined
MEASURED QUANTITY: Relative potency

[[record]]
input_smiles = "CCCCCCCCCCOc1ccc2c(=O)c3cccc(C(=O)O)c3oc2c1CCC(=O)O"
measured_quantity = "Relative potency"
recorded_measurement = 1

[[record]]
input_smiles = "CCCCCCCCCCOc1ccc2c(=O)c3cc(C(=O)O)ccc3oc2c1CCC(=O)O"
measured_quantity = "Relative potency"
recorded_measurement = 49

[[record]]
input_smiles = "CCCCCCCCCCOc1cc2oc3c(C(=O)O)cccc3c(=O)c2cc1CCC(=O)O"
measured_quantity = "Relative potency"
recorded_measurement = 1.2

[[record]]
input_smiles = "CCCCCCCCCCOc1cc2oc3ccc(C(=O)O)cc3c(=O)c2cc1CCC(=O)O"
measured_quantity = "Relative potency"
recorded_measurement = 2.5

[[record]]
input_smiles = "CCCCCCCCCCOc1ccc(C(=O)c2cccc(C(=O)O)c2)cc1CCC(=O)O"
measured_quantity = "Relative potency"
recorded_measurement = 10

[[record]]
input_smiles = "COc1ccc(/C=C/CCCCOc2ccc3c(=O)c4cc(C(=O)O)ccc4oc3c2CCC(=O)O)cc1"
measured_quantity = "Relative potency"
recorded_measurement = 338

